- MEASUREMENT DESCRIPTION: Study 2 (MAD) plasma and urine pharmacokinetics
- Type: in vivo, human
- SETTINGS: human, plasma, oral, 750 mg, IR 750 mg BID, day 14, fed (standard meal); read-out: Cmax, geometric mean (%CV)
PARAMETER MEASURED: Cmax (µg/mL)
Numbers only; they are read as µg/mL.

According to the records, this molecule CC[C@@H]1[C@H](F)C(=O)N[C@@H]1COc1nccc2cc(C(N)=O)c(OC)cc12 displays Cmax of 0.421

----------
- MEASUREMENT DESCRIPTION: clinical
- SETTINGS: human, in vivo, 1000 mg, Tmax, median (range)
PARAMETER MEASURED: Tmax (min)
// return numeric value only (unit: min, not printed)

Tmax for CC[C@@H]1[C@H](F)C(=O)N[C@@H]1COc1nccc2cc(C(N)=O)c(OC)cc12 is 45

The reported measurements were obtained from paper PMC6896740.
